# testTarget: Gal(b1-4)GlcNAc(b1-2)Man(a1-3)[GlcNAc(b1-4)][Gal(b1-4)GlcNAc(b1-2)Man(a1-6)]Man(b1-4)GlcNAc(b1-4)GlcNAc
# methodSummary: glycan array binding signal (z-score within array); higher = stronger binding
# conditionsUsed: glycan notation: IUPAC condensed, linker removed
Shown is part of a subset that was picked to be rich in the strongest signals.
Label Not satisfied if glycan array binding signal (z-score) falls below -0.4; label Satisfied in every other case.

Check out these entries, answers already filled in.
Exercise: Check this binder for glycan array binding signal (z-score) at or above -0.4: FGFR2-Fc (protein) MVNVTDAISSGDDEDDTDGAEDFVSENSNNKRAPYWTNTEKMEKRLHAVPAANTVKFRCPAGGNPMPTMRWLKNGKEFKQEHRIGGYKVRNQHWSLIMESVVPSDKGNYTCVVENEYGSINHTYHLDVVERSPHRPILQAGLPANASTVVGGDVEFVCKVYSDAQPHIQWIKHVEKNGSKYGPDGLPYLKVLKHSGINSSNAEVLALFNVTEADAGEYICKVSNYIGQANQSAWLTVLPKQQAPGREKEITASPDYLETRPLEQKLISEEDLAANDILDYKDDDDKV
Key: Not satisfied

Exercise: # check: glycan array binding signal (z-score) of LFA (Limax flavus) (protein) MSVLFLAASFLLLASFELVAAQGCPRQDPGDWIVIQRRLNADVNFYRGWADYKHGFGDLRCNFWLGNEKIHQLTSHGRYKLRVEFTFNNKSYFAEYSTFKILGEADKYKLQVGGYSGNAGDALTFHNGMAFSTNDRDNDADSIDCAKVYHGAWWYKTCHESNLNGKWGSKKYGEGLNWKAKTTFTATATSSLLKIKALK is greater than or equal to -0.4
Key: Satisfied

Exercise: Decide: is the reported value of glycan array binding signal (z-score) for CpGal16 (Clavelina picta) (protein) MAKMITNYVGKRIECIMVATDMMSTVFSLASATGDLPFYINFRQRENSIVMNTRVHGKWQYEKSQSSGGMNFYEPFRLVVEVRPSVFKVTVSTMGEEDGITFNLQYSQITIKPDEIVAMHLGYCNLRSELLVTDL equal to or greater than -0.4?
Key: Satisfied

Exercise: Record PNA (Arachis hypogaea), P02872 (protein) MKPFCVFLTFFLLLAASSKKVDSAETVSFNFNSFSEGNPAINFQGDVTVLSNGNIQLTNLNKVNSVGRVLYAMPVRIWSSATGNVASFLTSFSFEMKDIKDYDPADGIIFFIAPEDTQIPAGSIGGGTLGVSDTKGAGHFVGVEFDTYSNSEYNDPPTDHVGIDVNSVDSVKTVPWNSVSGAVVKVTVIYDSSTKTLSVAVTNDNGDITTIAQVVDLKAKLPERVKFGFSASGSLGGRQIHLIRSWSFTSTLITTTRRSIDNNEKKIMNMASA ; criterion: glycan array binding signal (z-score) no lower than -0.4. Met?
Key: Satisfied

Exercise: Hi team, for Clec2 (Mus musculus), Q9JL99 (protein) MQDEDGYITLNIKPRKQALSSAEPASSWWRVMALVLLISSMGLVVGLVALGIMSVTQQKYLLAEKENLSATLQQLAKKFCQELIRQSEIKTKSTFEHKCSPCATKWRYHGDSCYGFFRRNLTWEESKQYCTEQNATLVKTASQSTLDYIAERITSVRWIGLSRQNSKKDWMWEDSSVLRKNGINLSGNTEENMNCAYLHNGKIHPASCKERHYLICERNAGMTRVDQLL , is the recorded glycan array binding signal (z-score) at or above -0.4?
Key: Not satisfied

---
Exercise: Does the reported glycan array binding signal (z-score) for EULS2 M1 (Oryza sativa) (protein) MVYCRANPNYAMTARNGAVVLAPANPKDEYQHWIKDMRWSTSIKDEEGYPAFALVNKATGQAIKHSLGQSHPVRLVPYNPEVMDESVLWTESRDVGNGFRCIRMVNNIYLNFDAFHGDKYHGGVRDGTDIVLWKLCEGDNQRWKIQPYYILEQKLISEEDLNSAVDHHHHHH fall at or above the -0.4 mark?
Key: Satisfied

Exercise: glycan array binding signal (z-score) >= -0.4 for GSL-I-B4 (Griffonia simplicifolia) (protein) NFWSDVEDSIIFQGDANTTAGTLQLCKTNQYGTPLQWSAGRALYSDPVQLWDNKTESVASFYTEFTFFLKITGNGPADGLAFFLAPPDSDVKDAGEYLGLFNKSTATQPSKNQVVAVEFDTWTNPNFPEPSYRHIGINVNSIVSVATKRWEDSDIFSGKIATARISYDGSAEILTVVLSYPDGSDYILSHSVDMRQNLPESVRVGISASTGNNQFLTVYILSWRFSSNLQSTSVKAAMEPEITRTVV ?
Key: Satisfied

Exercise: Does glycan array binding signal (z-score) meet or surpass -0.4 for LlpA1 (Pseudomonas fluorescens), Q4KHC3 (protein) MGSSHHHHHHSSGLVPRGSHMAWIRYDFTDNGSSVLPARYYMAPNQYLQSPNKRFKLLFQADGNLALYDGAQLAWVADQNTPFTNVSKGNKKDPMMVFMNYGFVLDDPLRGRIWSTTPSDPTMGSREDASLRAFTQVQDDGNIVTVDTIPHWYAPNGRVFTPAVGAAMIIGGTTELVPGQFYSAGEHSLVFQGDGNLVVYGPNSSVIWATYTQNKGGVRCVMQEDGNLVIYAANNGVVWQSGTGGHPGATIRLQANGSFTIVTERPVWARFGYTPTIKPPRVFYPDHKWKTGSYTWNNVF ?
Key: Not satisfied

Exercise: Determine whether measured glycan array binding signal (z-score) meets or exceeds -0.4 for CFEM-PPl (Pichia pastoris), F2QPV1 (protein) AVATPPACLLACAAEVVKESSDCDALNNIQCICENEGSAIHACLESTCPDGLSSTALQSFEDVCESVGTEANLDE
Key: Satisfied
